Cited source for all entries: ChEMBL document CHEMBL1770082

Target: Protein-S-isoprenylcysteine O-methyltransferase (Homo sapiens, UniProt O60725)
Sequence (O60725 whole entry): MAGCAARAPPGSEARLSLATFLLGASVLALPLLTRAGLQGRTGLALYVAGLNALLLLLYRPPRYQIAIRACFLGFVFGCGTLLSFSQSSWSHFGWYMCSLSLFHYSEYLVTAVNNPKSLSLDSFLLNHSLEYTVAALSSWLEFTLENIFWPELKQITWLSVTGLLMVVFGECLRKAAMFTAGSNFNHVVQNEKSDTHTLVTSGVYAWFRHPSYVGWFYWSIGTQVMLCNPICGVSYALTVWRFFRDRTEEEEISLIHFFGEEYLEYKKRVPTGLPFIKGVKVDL
Conditions: at 10 µM
Description: Inhibition of human ICMT at 10 uM incubated with N-Acetyl-S-farnesyl-L-cysteine substrate for 5 mins followed by addition of [14C]-SAM measured after 30 mins by liquid scintillation counting
Recorded Metric: inhibition

{"Substance Smiles": "CC(C)=CCC/C(C)=C/CC/C(C)=C/CSC[C@H](NS(=O)(=O)c1ccccc1C(F)(F)F)C(=O)O", "Assay Target": "Protein-S-isoprenylcysteine O-methyltransferase (Homo sapiens, UniProt O60725)", "Recorded Metric": "inhibition", "Observed": "< 45%"}
{"Substance Smiles": "CC(C)=CCC/C(C)=C/CC/C(C)=C/CSC[C@H](NS(=O)(=O)c1ccc(F)cc1)C(=O)O", "Assay Target": "Protein-S-isoprenylcysteine O-methyltransferase (Homo sapiens, UniProt O60725)", "Recorded Metric": "inhibition", "Observed": "> 55%"}
{"Substance Smiles": "CC(C)=CCC/C(C)=C/CC/C(C)=C/CSC[C@H](NS(=O)(=O)c1cccc2cccnc12)C(=O)O", "Assay Target": "Protein-S-isoprenylcysteine O-methyltransferase (Homo sapiens, UniProt O60725)", "Recorded Metric": "inhibition", "Observed": "45%"}
{"Substance Smiles": "CC(C)=CCC/C(C)=C/CC/C(C)=C/CSC[C@H](NS(=O)(=O)c1c(C(C)C)cc(C(C)C)cc1C(C)C)C(=O)O", "Assay Target": "Protein-S-isoprenylcysteine O-methyltransferase (Homo sapiens, UniProt O60725)", "Recorded Metric": "inhibition", "Observed": "< 45%"}
{"Substance Smiles": "CC(C)=CCC/C(C)=C/CC/C(C)=C/CSC[C@H](NS(=O)(=O)c1ccccc1Oc1ccccc1)C(=O)O", "Assay Target": "Protein-S-isoprenylcysteine O-methyltransferase (Homo sapiens, UniProt O60725)", "Recorded Metric": "inhibition", "Observed": "55%"}

Which measured inhibition value corresponds to CC(C)=CCC/C(C)=C/CC/C(C)=C/CSC[C@H](NS(=O)(=O)c1ccccc1Br)C(=O)O ?
< 45%

Recorded inhibition for CC(=O)c1ccc(S(=O)(=O)N[C@@H](CSC/C=C(\C)CC/C=C(\C)CCC=C(C)C)C(=O)O)cc1 , please?
45%

Record request: inhibition value, item C=Cc1ccc(S(=O)(=O)N[C@@H](CSC/C=C(\C)CC/C=C(\C)CCC=C(C)C)C(=O)O)cc1
< 45%

# inhibition lookup, item CC(C)=CCC/C(C)=C/CC/C(C)=C/CSC[C@H](NS(=O)(=O)Cc1ccccc1)C(=O)O
< 45%

Can you look up the measured inhibition of CC(C)=CCC/C(C)=C/CC/C(C)=C/CSC[C@H](NS(=O)(=O)c1cccs1)C(=O)O for me?
> 55%

What does the data say about its inhibition? Entry: CCCc1ccc(S(=O)(=O)N[C@@H](CSC/C=C(\C)CC/C=C(\C)CCC=C(C)C)C(=O)O)cc1
< 45%

Fill in: inhibition of COc1ccc(S(=O)(=O)N[C@@H](CSC/C=C(\C)CC/C=C(\C)CCC=C(C)C)C(=O)O)c(OC)c1 is ___
45%

Which inhibition reading was recorded for the compound CC(C)=CCC/C(C)=C/CC/C(C)=C/CSC[C@H](NS(=O)(=O)C[C@@]12CC[C@H](CC1=O)C2(C)C)C(=O)O ?
45%

I would be grateful if you could share the reported inhibition for CC(C)=CCC/C(C)=C/CC/C(C)=C/CSC[C@H](NS(=O)(=O)c1ccc(Br)s1)C(=O)O .
< 45%
